system: SW1353; experiment: relative viability vs DMSO control (72 h) (fraction); higher = more viable cells; settings: 3.333 µM
MEASURED_QUANTITY: relative viability

INSERT INTO results (smiles_repr, tgt, measured_quantity, value_reported) VALUES
  ('COc1cc2ncnc(Nc3ccc(F)c(Cl)c3)c2cc1NC(=O)/C=C/CN1CCCCC1', 'SW1353', 'relative viability', 0.401),
  ('Cc1nc(Nc2ncc(C(=O)Nc3c(C)cccc3Cl)s2)cc(N2CCN(CCO)CC2)n1', 'SW1353', 'relative viability', 0.411),
  ('C[C@@H]1COC(Nc2ccc3ncnc(Nc4ccc(OCc5nccs5)c(Cl)c4)c3c2)=N1', 'SW1353', 'relative viability', 0.812),
  ('C[C@@H](Oc1cc(-c2cnn(C3CCNCC3)c2)cnc1N)c1c(Cl)ccc(F)c1Cl', 'SW1353', 'relative viability', 0.679);
